# Test System: T1, His-HER3 (UniProt P21860 20-643, limits assumed)
# T1 construct: Analyte of the Biacore assay; not shown: His tag
# Method Description: SPR, Biacore T200, antibody captured on protein A chip, His-HER3 as analyte

| Binder | kon (M⁻¹ s⁻¹) |
| --- | --- |
| humanized 3F8 antibody hu3F8-1 (antibody, human IgG1, kappa, V domains shown, also called Clone 1; clone-1) VH: QVQLQESGPGLVKPSETLSLTCTVSGYSITSAYYWNWIRQPPGKGLEWIGYISYDGRNNFNPSLKNRVTISVDTSKNQFSLKLSSVTAADTAVYYCARDGDYDYFDYWGQGTTVTVSS VL: DIQMTQSPSSLSASVGDRVTITCRASQDISNYLNWYQQKPGKAPKLLIYYTSILHSGVPSRFSGSGSGTDYTFTISSLQPEDIATYFCQQGDTLPPTFGGGTKLEIKR | 560000 |
